# Lookup of reported SPOT peptide array binding signal intensity keyed by entry
- TARGET SYSTEM: CaBem1-D1
- ASSAY SUMMARY: SPOT peptide array binding signal intensity (averaged, normalized) (arbitrary units (background-subtracted, floor 0; scale differs between SH3 domains)); higher = stronger binding of the SH3 domain to the peptide
The answer should be written as a number, with no unit following it.

>>> df
            binder  readout_number
0  STKKPRPPVKSKPKH               4
1  PSRRAPLQLPQLVNK            11.5
2  GPPPPLPPPLFPSSS             114

Any idea what SPOT peptide array binding signal intensity was measured for "RRGPAPPPPPRASRP" ? 1890
